These measurements were taken from PubChem BioAssay AID2060505.

- Test system: 633275-114-R-J1-PDC complex spheroids, viability;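 further: spheroids exposed to the agents for seven days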
- ASSAY REMARKS: Anticancer human tumor 633275-114-R-J1-PDC patient-derived endometrial adenocarcinoma cell line growth inhibition [GQUAD]
- PARTICULARS: curve of first compound; second compound 3.16 µM
- Source text: DNA G-quadruplex Stabilizer Agents in Combinations in Complex Spheroids A high-throughput screen of multi-cell type tumor spheroids was designed to identify active combinations of DNA G-quadruplex stabilizer agents and targeted small molecules. […] Compounds. […] If the clinical Cmax for an agent had not been determined, the highest concentration tested was 10 microM. […]
MEASURED PROPERTY: pIC50
Schema: pIC50 number; meaning minus log10 of the concentration expressed in molar units.

The following compounds have reported results that may help.
COMPOUND | SYSTEM UNDER TEST | REPORTED MEASUREMENT
CC1COCCN1c1cc(-c2ccnn2C)c2ccnc(-c3ccn[nH]3)c2n1 (stereo not given) + CN(C)c1ccc(Nc2c3ccc(NC(=O)CCN4CCCC4)cc3nc3cc(NC(=O)CCN4CCCC4)ccc23)cc1 | 633275-114-R-J1-PDC complex spheroids, viability | 7.04
CC1COCCN1c1cc(C2(S(C)(=N)=O)CC2)nc(-c2ccnc3[nH]ccc23)n1 (stereo not given) + CN(C)c1ccc(Nc2c3ccc(NC(=O)CCN4CCCC4)cc3nc3cc(NC(=O)CCN4CCCC4)ccc23)cc1 | 633275-114-R-J1-PDC complex spheroids, viability | 5.52
CC(C)n1c(=O)n(C)c2cnc3cc(F)c(-c4ccc(OCCCN5CCCCC5)nc4)cc3c21 + CN(C)c1ccc(Nc2c3ccc(NC(=O)CCN4CCCC4)cc3nc3cc(NC(=O)CCN4CCCC4)ccc23)cc1 | 633275-114-R-J1-PDC complex spheroids, viability | 5.59
O=C(NO)c1cnc(N2CCN(S(=O)(=O)c3ccc4ccccc4c3)CC2)nc1 + Cc1[nH]c2ccc(F)cc2c1-c1nc2c3cccnc3c3ncccc3c2[nH]1 | 633275-114-R-J1-PDC complex spheroids, viability | 6.47
C=CCn1c(=O)c2cnc(Nc3ccc(N4CCN(C)CC4)cc3)nc2n1-c1cccc(C(C)(C)O)n1 + CN(C)c1ccc(Nc2c3ccc(NC(=O)CCN4CCCC4)cc3nc3cc(NC(=O)CCN4CCCC4)ccc23)cc1 | 633275-114-R-J1-PDC complex spheroids, viability | 6.41

[ask] pIC50 lookup needed for CC(C)(O)C1CCC(Nc2ccc3ncc(-c4cccc(C(F)(F)F)c4)n3n2)CC1 (stereo not given) + Cc1[nH]c2ccc(F)cc2c1-c1nc2c3cccnc3c3ncccc3c2[nH]1 , thanks.
[reply] 6.02

[ask] What does the data say about its pIC50? Entry: C=CCn1c(=O)c2cnc(Nc3ccc(N4CCN(C)CC4)cc3)nc2n1-c1cccc(C(C)(C)O)n1 + Cc1[nH]c2ccc(F)cc2c1-c1nc2c3cccnc3c3ncccc3c2[nH]1
[reply] 6.44
